- System: SK-MEL-2
- test description: NCI tumour cell line growth inhibition, 48 h
Activity calls are given as the source filed them. No stated cut-off is given here; in the data, active = GI50 up to about 1.1 µM and inactive = higher.
// reported GI50 per item

molecule: COc1nc(C(Cl)(Cl)Cl)c(Cl)c(O)c1Cl
GI50: > 100 µM (inactive)

molecule: Cc1ccsc1C(=S)Nc1ccc(Cl)c(C(=O)OC(C(C)C)C(C)C)c1
GI50: 11.7 µM (inactive)

molecule: COc1ccccc1C12OC(=O)C1(C)Oc1ccccc1C2=O (stereo not drawn)
GI50: > 100 µM (inactive)

molecule: O=c1nc(NC(c2ccccc2)(c2ccccc2)c2ccccc2)ccn1CCNCCn1ccc(NC(c2ccccc2)(c2ccccc2)c2ccccc2)nc1=O
GI50: 2.66 µM (inactive)

molecule: O=c1[nH]cc(COCCCO)c(=O)[nH]1
GI50: > 100 µM (inactive)

molecule: O=C1c2ccccc2C(=O)C1C(c1ccc([N+](=O)[O-])cc1)C1C(=O)c2ccccc2C1=O
GI50: 91 µM (inactive)

molecule: N=C(N)N/N=C/c1c(Cl)nc2n1CCS2
GI50: > 100 µM (inactive)

molecule: CC1CNC(c2ccc(CN3CCC(C4CCN(Cc5ccc(C6=NC(C)CN6)cc5)CC4)CC3)cc2)=N1 (stereo not drawn)
GI50: 19.1 µM (inactive)

----------
- Tested on: SF-268
- test description: NCI tumour cell line growth inhibition, 48 h
Active and inactive are the calls of the source. Cut-off read from the data, not from the text of the source: active = GI50 up to about 1.1 µM and inactive = higher. Non-standard residues stand in square brackets, D forms with d. Residues, ends and D or L forms follow the SMILES beside them. ξ: configuration not given here. *: point of attachment. ξF = NC(Cc1ccccc1)C(=O)O; Cbz = O=C(OCc1ccccc1)*; Aib = CC(C)(N)C(=O)O
Possible outcomes: active, inactive

compound: COc1cccc(C2SCC(=O)N2c2ccc(-c3ccc(-n4c(-c5ccccc5)nc5ccccc5c4=O)cc3)cc2)c1OC (centres undefined)
label class: inactive
--
compound: Cc1nn2c(nc1=O)sc1ccc3ccccc3c12
label class: inactive
--
compound: CCC(/C(=N/NC(=O)C[N+](C)(C)C)c1ccccc1)C1OC(=O)c2ccccc21 (centres undefined)
label class: inactive
--
compound: Cn1c2ccccc2c2c(=O)[nH]c(=O)[nH]c21
label class: inactive
--
compound: C=CC(OC(C)=O)c1ccc(OC(C)=O)cc1 (centres undefined)
label class: inactive
--
compound: CCC(=O)OC1CCn2c1nc1c2C(=O)C(C)=C(N2CC2)C1=O (centres undefined)
label class: active
--
compound: CCOC(=O)CNC(=O)C(Cc1ccccc1)NC(=O)C(C)(C)NC(=O)OCc1ccccc1 (centres undefined) (Cbz-[Aib]-[ξF]-Gly-OEt)
label class: inactive
--
compound: CC(=O)c1nc(C#N)c(N)o1
label class: inactive
--
compound: Cn1c2ccccc2n2c(N=O)c(-c3ccccc3)nc12
label class: inactive
--
compound: COC(=O)C1(C)CCC(c2ccc(C)cc2)=C(CC(=O)O)C1 (centres undefined)
label class: inactive
--
compound: O=C(CSc1nnc(-c2ccc(/N=C\c3ccc(Cl)cc3)cc2)o1)Nc1ccccc1[N+](=O)[O-]
label class: inactive
--
compound: Cc1ccc(O)c(-c2cc(-c3cccc(Cl)c3)c(C#N)c(N)n2)c1
label class: inactive
--
compound: O=C(CCCl)NN=C1NCCCCN1
label class: inactive
--
compound: CC1=C(/C=C/C(C)=C/C=C/C(C)=C/C=C/C=C(C)/C=C/C=C(C)/C=C/C2=C(C)C(=O)C(O)CC2(C)C)C(C)(C)CC(O)C1=O (centres undefined)
label class: inactive
--
compound: CC(=O)Oc1ccc(/C=C/C(=O)OCCCOC(=O)/C=C/c2ccc(OC(C)=O)c(OC(C)=O)c2)cc1OC(C)=O
label class: inactive
--
compound: O=C1CC2SC(COCc3ccccc3)(CCN2Cc2ccccc2)C1 (centres undefined)
label class: inactive
--
compound: c1csc(-c2cc(-c3ccsc3)cs2)c1
label class: inactive
--
compound: CCN(CC)C(=S)N/N=C/c1cc(OC)ccc1O
label class: inactive
--
compound: CN(c1ccccc1Cl)S(=O)(=O)c1ccc([N+](=O)[O-])cc1
label class: inactive
--
compound: O=C1CSC2=NCC3(NN12)c1ccccc1-c1ccccc13
label class: inactive
--
compound: O=C1/C(=C/c2ccccc2Cl)COc2ccccc21
label class: inactive
--
compound: O=C1C(CN2CCCCC2)CCC1CN1CCCCC1 (centres undefined)
label class: inactive
--
compound: O=c1sc2ccccc2n1CC1CS1 (centres undefined)
label class: inactive
--
compound: COC(=O)[C@]1(C)[C@H]2C[C@H]3O[C@H]4[C@H](O)[C@@H](O)OC(CC(O)C(C5=CC(=O)OC5)C(C5=CC(=O)OC5)C(O)CC56CCCCC7[C@@H](C)[C@H](C[C@H]8[C@](C)(C(=O)OC)[C@H](O)CC[C@]78C)O[C@H]([C@@H](O)[C@H](O)O5)[C@H]6O)(CCCCC([C@@H]3C)[C@]2(C)CC[C@@H]1O)[C@H]4O (some centres undefined)
label class: active

----------
- System: UACC-257
- test description: NCI tumour cell line growth inhibition, 48 h
Activity calls are given as the source filed them. Cut-off read from the data, not from the text of the source: active = GI50 up to about 1.1 µM and inactive = higher.
Consider the following molecules and their measured GI50 readings.
endpoint name: GI50

molecule: O=C1CCCc2cc3c(cc21)CCC3C(=O)O (stereo unspecified)
endpoint name: GI50
recorded measurement: > 100 µM (inactive)
--
molecule: COC(=O)C1(C)CCC(c2ccc(C)cc2)=C(CC(=O)O)C1 (stereo unspecified)
endpoint name: GI50
recorded measurement: > 100 µM (inactive)
--
molecule: CCOc1ccc(/N=N/S(=O)(=O)O)cc1
endpoint name: GI50
recorded measurement: > 100 µM (inactive)
--
molecule: CC[C@H]1C=CCC[C@@]2(C[C@@H]3CC[C@@H]4[C@H](C(=O)OCCCCCCCCCCCCCCCC(=O)N(CCCN)C[C@@H](O)CCN)[C@]5(CCC[C@@H](C)O5)NC(=[N+]34)N2)O1
endpoint name: GI50
recorded measurement: 0.122 µM (active)
--
molecule: NC(=O)N/N=C(\CCC(=O)N(Cc1ccccc1)Cc1ccccc1)CC(=O)c1ccc(F)cc1
endpoint name: GI50
recorded measurement: > 100 µM (inactive)
--
molecule: FC(F)(F)c1ccc(C2SCc3nc4ccccc4n32)cc1 (stereo unspecified)
endpoint name: GI50
recorded measurement: 6.56 µM (inactive)
--
molecule: CN(C)/C=C/c1c2c(nc3ccccc13)C(=O)c1ccccc1C2=O
endpoint name: GI50
recorded measurement: 0.498 µM (active)
--
molecule: O=C(Cc1ccc([N+](=O)[O-])cc1)OCC#CCOC(=O)Cc1ccc([N+](=O)[O-])cc1
endpoint name: GI50
recorded measurement: > 10 µM (inactive)
--
molecule: c1ccc2c3c([nH]c2c1)C1(CCCCC1)c1c([nH]c2ccccc12)C31CCCCC1
endpoint name: GI50
recorded measurement: 50.4 µM (inactive)
--
molecule: O=c1c2cc(Cl)ccc2n2nnc3ccc(NCCNCCO)c1c32
endpoint name: GI50
recorded measurement: 1.78 µM (inactive)
--
molecule: COC(=O)C1=C(C)NC(C)=C(C(=O)OC)C1c1ccc(NO)cc1
endpoint name: GI50
recorded measurement: 11 µM (inactive)
--
molecule: O=C(NNC(=S)Nc1ccccc1)c1cc(-c2ccccc2)nc2ccccc12
endpoint name: GI50
recorded measurement: 19.1 µM (inactive)
--
molecule: Cn1c2ccccc2c2c(=O)[nH]c(=O)[nH]c21
endpoint name: GI50
recorded measurement: > 100 µM (inactive)
--
molecule: CC1CC[C@]2(C(=O)O)CCC3(C)C(=CCC4[C@@]5(C)CC[C@H](OS(=O)(=O)c6ccccc6)C(C)(C)C5CC[C@]43C)[C@@H]2[C@H]1C (stereo partly specified)
endpoint name: GI50
recorded measurement: > 100 µM (inactive)
--
molecule: CN1C(=O)c2c(c3c4ccccc4n(C4OC(CO)C(O)C(O)C4O)c3c3[nH]c4ccccc4c23)C1=O (stereo unspecified)
endpoint name: GI50
recorded measurement: 2.49 µM (inactive)
--
molecule: CC(=O)OCC1OC(OC2CC3C(C)(C)C(OC(C)=O)CC[C@]3(C)C3CCC45CC4(CC[C@H]5C(C)CC(O)[C@@H](O)C(C)(C)O)[C@]23C)C(O)C(O)C1O (stereo partly specified)
endpoint name: GI50
recorded measurement: 7.53 µM (inactive)

----------
Reported GI50 values are given for each entry in this list.
- Tested on: SW-620
- test description: NCI tumour cell line growth inhibition, 48 h
Calls of active or inactive are those of the source. No stated cut-off is given here; in the data, active = GI50 up to about 1.1 µM and inactive = higher.

compound: Cc1nc2ccccc2c(=O)[nH]1
GI50: > 100 µM (inactive)

compound: CC1(C)O[C@H]2OC3CCC(=O)CC3(O)[C@H]2O1 (stereo not given in full)
GI50: > 100 µM (inactive)

compound: CCCC(=O)OCC1OC(n2cc(F)c(=O)[nH]c2=O)CC1OC(=O)CCC (stereo not given)
GI50: > 10 µM (inactive)

compound: CC12CCC(C(=O)n3c1nc1ccccc13)C(C)(C)O2 (stereo not given)
GI50: > 100 µM (inactive)

compound: O=c1[nH]cc(COCCCO)c(=O)[nH]1
GI50: > 100 µM (inactive)

compound: CC(=O)OCC1OC(n2nc(Cc3ccccc3)c(=S)[nH]c2=S)C(OC(C)=O)C(OC(C)=O)C1OC(C)=O (stereo not given)
GI50: 30 µM (inactive)

compound: CCOC(=O)N1CCC(=O)C(CNC23CC4CC(CC(C4)C2)C3)C1 (stereo not given)
GI50: 19.8 µM (inactive)

compound: Oc1ccc(Br)cc1/C=N/C1CCCCC1
GI50: 24.8 µM (inactive)

compound: NNC(=O)Nc1cccnc1
GI50: > 100 µM (inactive)

compound: Cc1cc([N+](=O)[O-])ccc1Sc1c2ccccc2nc2cc(Cl)ccc12
GI50: 31.2 µM (inactive)

compound: CCc1n[nH]c(=O)n1N1C(=O)C2CC=CCC2C1=O (stereo not given)
GI50: > 100 µM (inactive)

compound: CC(C)C(Nc1ncnc2nc[nH]c12)C(=O)O (stereo not given)
GI50: > 100 µM (inactive)

compound: CCN1C(=O)C(=C/C=C/c2ccc(OC)cc2)C(=O)N(CC)C1=S
GI50: 20.8 µM (inactive)

compound: COc1cc(/C=C2\CC3C4CC=C5C[C@@H](O)CC[C@]5(C)C4CC[C@]3(C)\C2=N\O)cc(OC)c1OC (stereo not given in full)
GI50: 16.7 µM (inactive)

compound: CCCCCCCCCCCC(=O)OCC1OC(n2cc(F)c(=O)[nH]c2=O)C(N)C(OC(=O)CCCCCCCCCCC)C1O (stereo not given)
GI50: 68.4 µM (inactive)

Data origin, for the record: ChEMBL document CHEMBL1201862
